The measurements presented in this section are drawn from patent US20240301071A1.

biological target: T1, histidine-tagged human SIRPA v1 (Novoprotein) (human, UniProt P78324 31-370, limits assumed); test: BLI (Octet), antibody on anti-human IgG Fc sensor, His-huSIRPA in solution, single-curve 1:1 fit
T1 construct: bought, soluble; also called huSIRPA; soluble huSIRPA; not shown: histidine tag
T1 sequence (P78324 31-370 limits assumed): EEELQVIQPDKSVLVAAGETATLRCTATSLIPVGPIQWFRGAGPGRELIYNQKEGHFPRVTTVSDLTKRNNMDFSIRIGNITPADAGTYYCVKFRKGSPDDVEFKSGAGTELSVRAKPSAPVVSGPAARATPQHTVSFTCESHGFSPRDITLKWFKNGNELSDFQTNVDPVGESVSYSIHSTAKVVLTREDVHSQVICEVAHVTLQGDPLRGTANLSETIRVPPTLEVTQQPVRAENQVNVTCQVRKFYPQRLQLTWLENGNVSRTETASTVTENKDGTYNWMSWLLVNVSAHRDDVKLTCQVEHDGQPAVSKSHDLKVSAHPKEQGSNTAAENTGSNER
Consider the following binders and their measured Kd readings.
Enter your answer as a number in nM; do not include the unit.

3F9-11 (antibody, human IgG1, V domains shown, also called mAb 3F9-11) VH: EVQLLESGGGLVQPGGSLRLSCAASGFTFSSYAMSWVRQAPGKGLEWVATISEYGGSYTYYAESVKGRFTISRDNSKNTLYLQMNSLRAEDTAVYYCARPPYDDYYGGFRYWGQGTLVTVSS VL: DIQLTQSPSSLSASVGDRVTITCRASKSVSSGGYSYMHWYQQKPGKAPKLLIYLASNLESGVPSRFSGSGSGTDFTLTISSVQPEDFATYYCQHNRELPITFGQGTKLEIK    1.43

Turning now to a further binder:
## Input Dear colleague, I am looking for the recorded Kd of the following binder: 3F9-2 (antibody, human IgG1, V domains shown, also called mAb 3F9-2) VH: EVQLLESGGGLVQPGGSLRLSCAASGFTFSSYAMSWVRQAPGKGLEWVATISEYGGSYTYYAESVKGRFTISRDNSKNTLYLQMNSLRAEDTAVYYCARPPYDDYYGGFAYWGQGTLVTVSS VL: DIQLTQSPSSLSASVGDRVTITCRASKSVSSGGYSYMHWYQQKPGKAPKLLIYLASNLESGVPSRFSGSGSGTDFTLTISSVQPEDFATYYCQHNRELPCTFGQGTKLEIK
## Output 2.06
